Target Or Test System: human 5-HT2C (Homo sapiens, UniProt P28335)
Sequence (P28335 33-458): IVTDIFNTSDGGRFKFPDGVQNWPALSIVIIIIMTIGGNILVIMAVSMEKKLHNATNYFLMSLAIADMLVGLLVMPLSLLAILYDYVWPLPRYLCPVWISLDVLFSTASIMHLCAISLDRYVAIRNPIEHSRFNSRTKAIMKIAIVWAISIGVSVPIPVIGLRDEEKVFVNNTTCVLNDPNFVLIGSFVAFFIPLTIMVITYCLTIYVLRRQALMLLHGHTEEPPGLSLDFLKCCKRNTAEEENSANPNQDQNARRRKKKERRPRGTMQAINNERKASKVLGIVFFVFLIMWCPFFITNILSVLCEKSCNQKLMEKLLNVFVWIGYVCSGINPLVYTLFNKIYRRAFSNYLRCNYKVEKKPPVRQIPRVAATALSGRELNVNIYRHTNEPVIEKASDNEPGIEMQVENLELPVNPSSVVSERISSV
Experimental Details: Functional activity, FLIPR calcium assay, CHO cells expressing human 5-HT2C
Format: cell-based
Set-up: expressed in transfected cells; host or cells: CHO cells
Reported Conditions: h5-HT2c EC50, FLIPR, CHO cells
Description: The functional activity of compounds of formula (I) was assayed using a Fluorimetric Imaging Plate reader (FLIPR). CHO cells expressing the human 5-HT2C or human 5-HT2A receptors were counted and plated into standard 96 well microtitre plates on the day before testing to give a confluent monolayer. […] The drug (dissolved in 50 μL of the assay buffer) was added at a rate of 70 μL/sec to each well of the FLIPR 96 well plate during fluorescence measurements. […]
Where a name gives a salt, the structure may show the parent alone.
Quantity: EC50

Worked examples, 5 compounds total:
# Compound, Target Or Test System, Observed Result
rows = [
    ("CSc1ccc2c(c1)c(CC(C)N)c1n2CCC1 (racemic) [Example 11, fumarate]", "human 5-HT2C (Homo sapiens, UniProt P28335)", "8 nM"),
    ("COc1ccc2c(c1)c(CC(C)N)c1n2CCC1 (racemic) [Example 3, fumarate]", "human 5-HT2C (Homo sapiens, UniProt P28335)", "32 nM"),
    ("Cc1ccc2c(c1)c(CC(C)N)c1n2CCC1 (racemic) [Example 6, fumarate]", "human 5-HT2C (Homo sapiens, UniProt P28335)", "348 nM"),
    ("CC(N)Cc1c2n(c3ccc(Br)cc13)CCC2 (racemic) [Example 5, fumarate]", "human 5-HT2C (Homo sapiens, UniProt P28335)", "94 nM"),
    ("COc1ccc2c(c1)c(CC(C)N)c1n2CCC1 (single isomer, unassigned; enantiomer 2) [Example 9]", "human 5-HT2C (Homo sapiens, UniProt P28335)", "7 nM"),
]

Inquiry: Which measured EC50 value corresponds to CC(N)Cc1c2n(c3cc4c(cc13)OCO4)CCC2 (racemic) [Example 7, fumarate] ?
Reply text: 227 nM

Inquiry: Any idea what EC50 was measured for COc1ccc2c(c1)c(CC(C)N)c1n2CCC1 (single isomer, unassigned; enantiomer 1) [Example 8] ?
Reply text: 33 nM

Inquiry: Requested read-out: EC50. Entry: CC(N)Cc1c2n(c3ccc(Cl)cc13)CCC2 (racemic) [Example 1, hydrochloride]
Reply text: 96 nM

----------
Target Or Test System: UniProt P28223
Experimental Details: Functional activity, FLIPR calcium assay, CHO cells expressing human 5-HT2A
Type: cell-based
Set-up: expressed in transfected cells; host or cells: CHO cells
Reported Conditions: FLIPR, CHO cells; read-out: h5-HT2A EC50
Counter-ions that a name gives are not always drawn.
Listing of entries alongside the reported EC50.

# Compound, Target Or Test System, Observed Result
rows = [
    ("CC(N)Cc1c2n(c3cc4c(cc13)OCO4)CCC2 (racemic) [Example 7, fumarate]", "UniProt P28223", "2620 nM"),
    ("CSc1ccc2c(c1)c(CC(C)N)c1n2CCC1 (racemic) [Example 11, fumarate]", "UniProt P28223", "> 10000 nM"),
    ("CC(N)Cc1c2n(c3ccc(Br)cc13)CCC2 (racemic) [Example 5, fumarate]", "UniProt P28223", "4020 nM"),
    ("CC(N)Cc1c2n(c3ccc(Cl)cc13)CCC2 (racemic) [Example 1, hydrochloride]", "UniProt P28223", "3240 nM"),
    ("COc1ccc2c(c1)c(CC(C)N)c1n2CCC1 (racemic) [Example 3, fumarate]", "UniProt P28223", "636 nM"),
    ("Cc1ccc2c(c1)c(CC(C)N)c1n2CCC1 (racemic) [Example 6, fumarate]", "UniProt P28223", "> 10000 nM"),
    ("COc1ccc2c(c1)c(CC(C)N)c1n2CCC1 (single isomer, unassigned; enantiomer 2) [Example 9]", "UniProt P28223", "792 nM"),
]

Inquiry: Fill in the blank: the reported EC50 of COc1ccc2c(c1)c(CC(C)N)c1n2CCC1 (single isomer, unassigned; enantiomer 1) [Example 8] is ____.
Reply text: 921 nM

----------
Target Or Test System: human 5-HT2B receptors (Homo sapiens)
Construct: expressed in transfected cells; host or cells: CHO cell line
Sequence (P41595 whole entry): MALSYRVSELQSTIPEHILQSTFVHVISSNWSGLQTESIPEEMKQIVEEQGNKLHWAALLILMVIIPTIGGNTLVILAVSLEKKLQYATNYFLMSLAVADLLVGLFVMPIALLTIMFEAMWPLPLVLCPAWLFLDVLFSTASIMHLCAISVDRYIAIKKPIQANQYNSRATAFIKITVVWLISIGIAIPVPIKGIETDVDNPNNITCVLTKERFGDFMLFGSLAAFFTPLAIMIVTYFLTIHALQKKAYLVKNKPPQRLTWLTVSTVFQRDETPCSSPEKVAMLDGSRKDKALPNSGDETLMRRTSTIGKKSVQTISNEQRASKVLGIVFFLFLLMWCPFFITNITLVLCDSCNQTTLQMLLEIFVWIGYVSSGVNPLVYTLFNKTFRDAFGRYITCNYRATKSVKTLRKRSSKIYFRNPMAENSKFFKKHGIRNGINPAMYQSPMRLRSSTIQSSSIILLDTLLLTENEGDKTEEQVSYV
Experimental Details: Binding to 5-HT2B receptor, [3H]-5-HT, CHO cell line
Reported Conditions: [3H]-5-HT, human receptor, CHO cell line; read-out: Ki (2B)
Method: The binding of compounds of formula (I) to serotonin receptors was determined in vitro by standard methods. The preparations were investigated in accordance with the assays given hereinafter. Method (b): For the binding to the 5-HT2B receptor the 5-HT2B receptors were radiolabeled with [^3H]-5-HT. The affinity of the compounds for human 5-HT2B receptors in a CHO cell line was determined according to the procedure of K. Schmuck, C. Ullmer, P. Engels and H. Lubbert, FEBS Lett., 1994, 342, 85-90.
Where a name gives a salt, the structure may show the parent alone.
Quantity: pKi
pKi (log units): -log10 of the concentration in mol/L.

# Molecule, pKi
measured = [
    ("CSc1ccc2c(c1)c(CC(C)N)c1n2CCC1 (racemic) [Example 11, fumarate]", 6.94),
    ("CC(N)Cc1c2n(c3ccc(Br)cc13)CCC2 (racemic) [Example 5, fumarate]", 6.91),
    ("CC(N)Cc1c2n(c3ccc(Cl)cc13)CCC2 (racemic) [Example 1, hydrochloride]", 6.64),
]

Now let's try a different one.
Inquiry: Fill in the blank: the reported pKi of COc1ccc2c(c1)c(CC(C)N)c1n2CCC1 (racemic) [Example 3, fumarate] is ____.
Reply text: 6.66

----------
Counter-ions that a name gives are not always drawn.
Quantity: melting point

# Compound, Quantity, Observed Result
data = [
    ("CC(N)Cc1c2n(c3ccc(Cl)cc13)CCC2 (racemic) (as salt: hydrochloride) [Example 1]", "melting point", "272 to 273 °C"),
    ("COc1ccc2c(c1)c(CC(C)NCC(C)(C)C)c1n2CCC1 (racemic) (as salt: hydrochloride)", "melting point", "226 to 228 °C"),
]

Inquiry: GET /values?readout=melting point&item= COc1ccc2c(c1)c(CC(C)N)c1n2CCC1 (racemic) (as salt: fumarate) [Example 3]
Reply text: 194 to 196 °C

Inquiry: I am curious: what melting point value has been reported for COc1ccc2c(c1)c(CC(C)NCC1CC1)c1n2CCC1 (racemic) (as salt: hydrochloride) ?
Reply text: 149 to 151 °C

Inquiry: Form field: reported melting point of COc1ccc2c(c1)c(CC(C)NCCC(C)C)c1n2CCC1 (racemic) (as salt: hydrochloride)
Reply text: 118 to 121 °C

----------
Target Or Test System: human 5-HT2C (Homo sapiens)
Experimental Details: Binding to 5-HT2C receptor, [3H]-5-HT, CHO cell line
Set-up: expressed in transfected cells; host or cells: CHO cell line
Where a name gives a salt, the structure may show the parent alone.
Quantity: Ki

Inquiry: For the molecule CC(N)Cc1c2n(c3cc(F)c(F)cc13)CCC2 (racemic) [Example 2, hydrochloride] , what Ki is on record?
Reply text: 97 nM

----------
Target Or Test System: 5-HT2A receptor (Homo sapiens)
Sequence (P28223 whole entry): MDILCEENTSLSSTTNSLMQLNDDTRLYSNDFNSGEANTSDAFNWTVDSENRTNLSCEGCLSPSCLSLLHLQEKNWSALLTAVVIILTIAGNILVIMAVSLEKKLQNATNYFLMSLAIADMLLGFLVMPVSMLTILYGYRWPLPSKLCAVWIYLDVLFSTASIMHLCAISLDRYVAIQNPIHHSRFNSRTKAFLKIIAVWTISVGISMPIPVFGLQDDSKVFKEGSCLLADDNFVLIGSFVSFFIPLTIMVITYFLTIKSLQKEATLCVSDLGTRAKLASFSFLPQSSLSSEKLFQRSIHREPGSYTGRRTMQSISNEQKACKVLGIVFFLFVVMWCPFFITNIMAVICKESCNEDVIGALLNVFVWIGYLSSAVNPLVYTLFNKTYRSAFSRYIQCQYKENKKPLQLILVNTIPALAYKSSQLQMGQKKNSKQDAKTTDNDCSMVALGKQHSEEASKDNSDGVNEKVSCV
Experimental Details: Functional activity, FLIPR calcium assay, CHO cells expressing human 5-HT2A
Assay type: cell-based
Set-up: expressed in transfected cells; host or cells: CHO cells
Reported Conditions: maximum fluorescent signal relative to 10 μM 5-HT (100%)
Structures can show the parent of a compound that is named as a salt.
Quantity: h5-HT2A Relative Efficacy (%)
Provide the reading as a plain figure in %.

Examples with their reported h5-HT2A Relative Efficacy follow.
# Molecule, Observed Result
measured = [
    ("CC(N)Cc1c2n(c3cc(F)c(F)cc13)CCC2 (racemic) [Example 2, hydrochloride]", 12),
    ("COc1ccc2c(c1)c(CC(C)N)c1n2CCC1 (single isomer, unassigned; enantiomer 1) [Example 8]", 36),
    ("COc1ccc2c(c1)c(CC(C)N)c1n2CCC1 (racemic) [Example 3, fumarate]", 22),
    ("COc1ccc2c(c1)c(CC(C)N)c1n2CCC1 (single isomer, unassigned; enantiomer 2) [Example 9]", 40),
    ("CC(N)Cc1c2n(c3ccc(Cl)cc13)CCC2 (racemic) [Example 1, hydrochloride]", 33),
]

Inquiry: Requested read-out: h5-HT2A Relative Efficacy. Entry: CC(N)Cc1c2n(c3cc4c(cc13)OCO4)CCC2 (racemic) [Example 7, fumarate]
Reply text: 37

Inquiry: Form field: reported h5-HT2A Relative Efficacy of CC(N)Cc1c2n(c3ccc(Br)cc13)CCC2 (racemic) [Example 5, fumarate]
Reply text: 33

Source of measurements: patent US6433175B1
